assaySummary: Pharmacokinetic evaluation in SD rats in vivo
Design: species or system SD rat
testContext: male, rat, plasma, IV 2 mg/kg, read-out: Half-life T1/2 (IV) (converted)

smilesRepresentation	half-life
[2H]C([2H])([2H])N1CCC[C@@H](Nc2cc(C)c(-c3ccc4sccc4c3O)nn2)C1	1.82 h

----------
assaySummary: Pharmacokinetic evaluation in SD rats in vivo
Set-up: species or system SD rat
testContext: male, rat, plasma, oral gavage 10 mg/kg (route not given), read-out: Peak concentration Cmax
resultType: Cmax (nM)

smilesRepresentation	resultNumber
[2H]C([2H])([2H])N1CCC[C@@H](Nc2cc(C)c(-c3ccc4sccc4c3O)nn2)C1	593

----------
assaySummary: Pharmacokinetic evaluation in beagle dogs in vivo
Parameters: species or system beagle dog
testContext: male, dog, plasma, oral gavage 2 mg/kg (route not given), read-out: Peak concentration Cmax

smilesRepresentation	Cmax / nM
[2H]C([2H])([2H])N1CCC[C@@H](Nc2cc(C)c(-c3ccc4sccc4c3O)nn2)C1	504

----------
assaySummary: Pharmacokinetic evaluation in SD rats in vivo
Set-up: species or system SD rat
testContext: male, rat, plasma, IV 2 mg/kg, read-out: Volume of distribution at steady state Vdss
resultType: Vd (L/kg)

smilesRepresentation	resultType	resultNumber
[2H]C([2H])([2H])N1CCC[C@@H](Nc2cc(C)c(-c3ccc4sccc4c3O)nn2)C1	Vd	6.99

----------
assaySummary: Pharmacokinetic evaluation in beagle dogs in vivo
Parameters: species or system beagle dog
testContext: male, dog, plasma, IV 1 mg/kg, read-out: Half-life T1/2 (IV) (converted)

smilesRepresentation	unitString	half-life
[2H]C([2H])([2H])N1CCC[C@@H](Nc2cc(C)c(-c3ccc4sccc4c3O)nn2)C1	h	3.53
